Measured pest or weed control at 200 ppm, listed per entry for reference.
- Test system: Rhynchosporium commune
- experiment.summary: Leaf blotch of barley, whole-plant fungicidal activity (RHYNSE)
- Type: in vivo
- condition.label: 24 h, 1DP (1 day protectant), read-out: % Disease Control Rating RHYNSE

Use these answered entries as a reference point.
Cc1cc(C(=O)Cc2c(F)cc(F)cc2F)c(C)cc1/N=C/N1CCCCC1 : < 20%
CCN(C)/C=N/c1cc(C)c(C(=O)Cc2ccc(SC(F)(F)F)cc2)cc1C : > 85%
Cc1cc(C(=O)CC2CCCC2)c(C)cc1/N=C/N1CCCCC1 : > 85%

Report pest or weed control at 200 ppm for "Cc1cc(C(=O)CC2CCCCC2)c(C)cc1/N=C(\S)N(C)C1CCCCC1" please.
< 20%

// next record "Cc1cc(C(=O)CC2CCCC2)c(C)cc1/N=C1\CCCCN1C"
20 to 50%

Continue with "Cc1cc(C(=O)CC2CCCCC2)c(C)cc1/N=C/N(C)C"
< 20%

Query "CCN(C)/C=N/c1ccc(C(=O)CC2CCCC2)cc1C" next
< 20%

Check "CCN(C)/C(S)=N/c1cc(C)c(C(=O)Cc2c(F)cc(F)cc2F)cc1C" too.
> 85%

Please give the result for "CCN(C)/C(S)=N/c1cc(C)c(C(=O)CC2CCCCC2)cc1C" too.
> 85%

Another compound to look at: "Cc1cc(C(=O)CC2CCCC2)c(C)cc1/N=C/N(C)C"
< 20%

Do the same for "Cc1cc(C(=O)CC2CCCCC2)c(C)cc1/N=C(\S)N(C)Cc1ccccc1" please
< 20%
